Sourced from ChEMBL document CHEMBL1136461

Measured MIC90 of individual entries
# Test system: Staphylococcus aureus
# Assay procedure: Antibacterial activity against methicillin resistant Staphylococcus aureus (MRSA)
# Format: functional
Readout kind: MIC90 (µg/mL)

INSERT INTO assay_data (compound, unit_label, recorded_result) VALUES
  ('COc1cc(Cc2cnc(N)nc2N)cc(OC)c1OC', 'µg/mL', 8),
  ('CN[C@H](CC(C)C)C(=O)N[C@H]1C(=O)N[C@@H](CC(N)=O)C(=O)N[C@H]2C(=O)N[C@H]3C(=O)N[C@H](C(=O)N[C@H](C(=O)O)c4cc(O)cc(O)c4-c4cc3ccc4O)[C@H](O)c3ccc(c(Cl)c3)Oc3cc2cc(c3O[C@@H]2O[C@H](CO)[C@@H](O)[C@H](O)[C@H]2O[C@H]2C[C@](C)(N)[C@H](O)[C@H](C)O2)Oc2ccc(cc2Cl)[C@H]1O', 'µg/mL', 1),
  ('CC(=O)NC[C@H]1CN(c2ccc(N3CCOCC3)c(F)c2)C(=O)O1', 'µg/mL', 8),
  ('COc1cc(Cc2cnc(N)nc2N)c2c(c1OC)OC(C1CC1)C=C2 (centres undefined)', 'µg/mL', 0.06);
